EXPERIMENT SUMMARY: WST-1 cell viability assay, HUVEC
TEST PARAMETERS: human, HUVEC cells
VALUE KIND: viability at 24 h, 0.06 mM

{"STRUCTURE SMILES": "CCCCS(=O)(=O)NC(N)=NC(=N)N(C)C", "OBS VALUE": "76.3%"}

As a next step, examine the compound that follows.
Inquiry: Would you mind telling me what viability at 24 h, 0.06 mM value was observed for CCCCCCCCS(=O)(=O)NC(N)=NC(=N)N(C)C ?
Reply text: 75.9%

* * *

System: HUVEC cells
EXPERIMENT SUMMARY: HUVEC integrity in RTCA-DP system (normalized cell index)
Assay type: cell-based, human
TEST PARAMETERS: 1.0 mM, 36 hours
normalized Cell Index (nCI) values by entry
Give the value as a plain number.

Check out these entries, answers already filled in.
{"MOLECULE": "CN(C)C(=N)N=C(N)NS(=O)(=O)C1CCCCC1 [Compound 3]", "OBS VALUE": 0.694}
{"MOLECULE": "CCCCCCCCS(=O)(=O)NC(N)=NC(=N)N(C)C [Compound 2]", "OBS VALUE": 0.379}
{"MOLECULE": "CN(C)C(=N)N=C(N)NS(=O)(=O)c1cccc(C#N)c1 [Compound 7]", "OBS VALUE": 0.013}
{"MOLECULE": "CCCCS(=O)(=O)NC(N)=NC(=N)N(C)C [Compound 1]", "OBS VALUE": 0.858}
{"MOLECULE": "CN(C)C(=N)N=C(N)NS(=O)(=O)c1ccc(C#N)cc1 [Compound 8]", "OBS VALUE": 0.001}

As a next step, examine the molecule that follows.
Inquiry: Recall the recorded normalized Cell Index (nCI) for CN(C)C(=N)N=C(N)NS(=O)(=O)c1ccccc1C#N [Compound 6] with HUVEC cells and state it.
Reply text: 0.009

* * *

EXPERIMENT SUMMARY: WST-1 cell viability assay, HUVEC
TEST PARAMETERS: human, HUVEC cells
VALUE KIND: viability at 24 h, 3 mM (%)
Form entry: value (%) — number only.

Inquiry: Would you mind telling me what viability at 24 h, 3 mM value was observed for CCCCCCCCS(=O)(=O)NC(N)=NC(=N)N(C)C ?
Reply text: 41.5

* * *

EXPERIMENT SUMMARY: WST-1 cell viability assay, AoSMC
TEST PARAMETERS: human, AoSMC cells
viability at 24 h, 3 mM values by entry

{"STRUCTURE SMILES": "CN(C)C(=N)N=C(N)NS(=O)(=O)C1CCCCC1", "viability at 24 h, 3 mM": "> 76%"}

As a next step, examine the molecule that follows.
Inquiry: Would you mind telling me what viability at 24 h, 3 mM value was observed for CCCCS(=O)(=O)NC(N)=NC(=N)N(C)C ?
Reply text: > 59%

* * *

EXPERIMENT SUMMARY: WST-1 cell viability assay, HUVEC
TEST PARAMETERS: human, HUVEC cells
VALUE KIND: viability at 24 h, 5 mM (%)
Form entry: value (%) — number only.

Inquiry: Would you mind telling me what viability at 24 h, 5 mM value was observed for CCCCCCCCS(=O)(=O)NC(N)=NC(=N)N(C)C [Compound 2] ?
Reply text: 32.1
